src = PubChem BioAssay (NCI)

- Tested on: HCC-2998 colon
- experiment: NCI-60 one-dose screen, 48 h (100 = growth as untreated, 0 = no growth, -100 = all killed)
- conditionContext: 10 µM unless noted
Compounds without any hit were thinned out: in the full panel of roughly 83,000, 20% have a hit.
Listed next: entries and their corresponding growth.
propertyLabel: growth (%)

CC(=O)O[C@H]1C(=O)[C@@]2(C)[C@H]([C@H](OC(=O)c3ccccc3)[C@]3(O)C[C@H](OC(=O)[C@H](OC(=O)OCC4COC(C)(C)O4)[C@@H](NC(=O)c4ccccc4)c4ccccc4)C(C)=C1C3(C)C)[C@]1(OC(C)=O)CO[C@@H]1C[C@@H]2O (some centres undefined) :: 39.9
OCCNC(Cc1ccccc1)c1ccc2c(c1)OCO2 (centres undefined) :: 99.3
CCOP1(=O)CC(C)=C(Cl)C(P(=O)(OCC)OCC)C1 (centres undefined) :: 86.3
COc1cc(/C=C/[N+](=O)[O-])cc(OC)c1 :: -79.7
C[C@@]12CC=C3c4nc(Nc5cccc(O)c5)sc4CC[C@]3(C)[C@H]1CC[C@]1(C)C(=O)CC[C@@H]21 :: 81.5
CCNc1nc(Cl)nc(NCC)n1 :: 104
COc1cc(/C=C\c2cc(OC)c(OC)c(OC)c2)cc(N/C=C\C(=O)c2cc(OC)c(OC)c(OC)c2)c1OC :: 53.6
CC(=O)C(c1c(O)c2ccccc2oc1=O)c1cc(=O)oc2c1ccc1ccccc12 (centres undefined) :: 104
O=C(CCCCCCC(=O)Nc1ccc(N(CCCl)CCCl)cc1)NO :: 52.1

###

- System: SN12C renal
- experiment: NCI-60 one-dose screen, 48 h (100 = growth as untreated, 0 = no growth, -100 = all killed)
- conditionContext: 10 µM unless noted
This is part of a sample that, as a whole, favours compounds with a hit. Of some 83,000 tested, about 20% had one in any assay.
Listed next: entries and their corresponding growth.
propertyLabel: growth (%)

O=C(Nc1ccncc1F)c1cn(CC2CC2)c2ccccc12 :: 102
CCCCN(CCCC)P(=O)(Oc1ccccc1)Oc1ccccc1 :: 59.9
COC(=O)[C@@H](C)C[C@H](Cc1ccccc1)NC(=O)c1csc([C@@H](C[C@H](C(C)C)N(C)C(=O)[C@H](C)NC(=O)[C@H]2CCCCN2C)OC(C)=O)n1 :: 36
CN(C)CC(C(=O)Cc1ccccc1)c1ccccc1 (stereo not given) :: 93.6
CN1C(=O)C(=Cc2cn(CCCCCCn3c4ccccc4c(=O)c4ccccc43)c3ccccc23)C(=O)N(C)C1=O :: 104
COC(=O)[C@@H](C)C[C@H](Cc1ccc(F)cc1)NC(=O)c1csc([C@@H](C[C@H](C(C)C)N(C)C(=O)[C@@H](NC(=O)[C@H]2CCCCN2C)C2CC2)OC(C)=O)n1 :: 31.6
CC(=O)[O][Hg][c]1c(N)c(C)cc(C)c1F :: 5.86
O=[N+]([O-])c1ccc(OP(=O)(CCl)N(CCCl)CCCl)cc1 (stereo not given) :: 112
COc1cc(C=C2c3ccccc3C(=O)c3ccccc32)ccc1OCCCCOc1cc2c(cc1OC)C(=O)N1CCCC1C=N2 (stereo not given) :: -68.6
C=CCCCN=C=S :: 60.1
COc1ccc(/C=C\c2cc(OC)c(OC)c(OC)c2)c(NS(=O)(=O)c2ccc(Cl)cc2)c1O :: 22.1
C=COC(=O)CCN1CC1 :: 102
CN(CCCCN(C)CCOS(C)(=O)=O)CCOS(C)(=O)=O :: 71.9
O=C(Nc1ccc(O)cc1)C(Cl)(Cl)Cl :: 95.4
CC(C)=CC1C(C(=O)OCc2cccc(Oc3ccccc3)c2)C1(C)C (stereo not given) :: 94.5
COC(=O)[C@]12CCC(C)(C)C[C@H]1[C@H]1C(=O)C[C@@H]3[C@@]4(C)C[C@@]5(CC(C)(C)[C@@H]4CC[C@@]3(C)[C@]1(C)CC2)OO[C@@](C)(C(F)(F)F)O5 :: 92.4
O=NNc1ccccn1 :: 87.4
Cc1ccc(N2COOC3(OOC2)C2CC4CC(C2)CC3C4)cc1 :: 106
CC(=O)O[C@H](C[C@H](C(C)C)N(C)C(=O)[C@@H](NC(=O)[C@H]1CCCCN1C)C(C)C)c1cccc(C(=O)N[C@@H](Cc2ccccc2)C[C@H](C)C(=O)O)n1 :: 22
Oc1c(CCl)cc(Cl)cc1CCl :: 122

###

- System: HL-60(TB) leukemia
- experiment: NCI-60 one-dose screen, 48 h
- conditionContext: 10 µM unless noted
This is part of a sample that, as a whole, favours compounds with a hit. Of some 83,000 tested, about 20% had one in any assay. Active and inactive are the calls of the source. The calls were made as follows: active = growth percent below 10; inactive = the rest.
Possible outcomes: active, inactive

CC[C@H](C)[C@H](NC(=O)[C@H]1CCCCN1C)C(=O)N(C)[C@H](CC(=O)c1nc(C(=O)N[C@@H](Cc2ccccc2)C[C@H](C)C(=O)O)cs1)C(C)C :: active
CCOC(=O)[C@@H](C)C[C@H](Cc1ccccc1)NC(=O)c1csc([C@@H](C[C@H](C(C)C)N(C)C(=O)[C@@H](NC(=O)[C@H]2CCCCN2C)C(C)(C)CC)OC(C)=O)n1 :: active
CN1C(=O)C(=Cc2cn(Cc3ccccc3)c3ccccc23)C(=O)N(C)C1=O :: inactive
CN(C)CCCOc1ccc2c(c1)c(C(=O)C(=O)NCCO)cn2Cc1ccccc1 :: inactive
CNC(=O)Oc1ccc(N(C)C)cc1C(C)C :: inactive
CCCC(=O)O[C@@H]1C[C@H]2C[C@@H](O[C@@H]3O[C@@H](C)[C@@H](O)[C@@H](O)[C@H]3OC)C[C@@H](C[C@@H](C)/C=C/C=C\C[C@@H]3O[C@@H](C[C@@H]3C)[C@@H](O)C[C@H]3C[C@@]1(O)C(=O)O3)O2 :: inactive
CCN(CC)CCOC(=O)C(OC(C)C)(c1ccccc1)c1ccccc1 :: inactive
CCCc1cc(O)c2c3c(c(=O)oc2c1)CN(C)CC3 :: active

###

- Tested on: RPMI-8226 leukemia
- experiment: NCI-60 one-dose screen, 48 h (100 = growth as untreated, 0 = no growth, -100 = all killed)
- conditionContext: 10 µM unless noted
The panel holds about 83,000 compounds, 20% with a hit somewhere; the sample as a whole holds those more often.
Assign Fulfilled to entries whose growth meets or exceeds 20%; assign Not fulfilled to the rest.

COC(=O)[C@H](Cc1ccccc1)NC(=O)c1csc([C@@H](C[C@H](C(C)C)N(C)C(=O)[C@@H](NC(=O)[C@H]2CCCN2C)C2CC2)OC(C)=O)n1 :: Not fulfilled
C=CC[PH+](c1ccccc1)c1ccccc1.C=CC[PH+](c1ccccc1)c1ccccc1.[Cl][Pt][Cl] :: Not fulfilled
COc1ccc2c(c1)c(C1(O)CC(CSC#N)OC1=O)cn2C(=O)c1ccc(Cl)cc1 (stereo not drawn) :: Fulfilled
O=[N+]([O-])/C=C\c1ccc(Cl)c(Cl)c1 :: Not fulfilled
Clc1cccc(NCOOC2(OOCNc3cccc(Cl)c3)CCCCC2)c1 :: Fulfilled
COC(=O)[C@@H](C)C[C@H](Cc1cn(C)c2ccccc12)NC(=O)c1csc([C@@H](C[C@H](C(C)C)N(C)C(=O)[C@@H](NC(=O)[C@H]2CCCCN2C)C(C)C)OC(C)=O)n1 :: Not fulfilled
CCn1cnc2c(Nc3cccc(Cl)c3)nc(N[C@@H]3CCCC[C@@H]3N)nc21 :: Not fulfilled
Nc1nc([Se])c2ncn(C3OC(CO)C(O)C3O)c2n1 (stereo not drawn) :: Fulfilled

###

- Test system: SK-MEL-28 melanoma
- experiment: NCI-60 one-dose screen, 48 h (100 = growth as untreated, 0 = no growth, -100 = all killed)
- conditionContext: 10 µM unless noted
About 83,000 compounds went through this panel and 20% of them were active in at least one assay; those are over-represented in the sample as a whole.
Label true (1) when growth is strictly below 60%; otherwise label false (0).

CN1CC(CNC(=O)OCc2ccccc2)CC2c3cccc4c3c(cn4C)CC21 (centres undefined) :: true (1)
COC(=O)[C@@H](C)C[C@H](Cc1ccccc1)NC(=O)c1csc([C@@H](C[C@H](C(C)C)N(C)C(=O)[C@@H](NC(=O)[C@H]2CCCCN2C)C(C)C)OC(C)=O)n1 :: true (1)
COC(=O)[C@@H](C)C[C@H](Cc1ccccc1)NC(=O)c1cccc([C@@H](C[C@H](C(C)C)N(C)C(=O)[C@@H](NC(=O)[C@H]2CCCCN2C)C(C)C)OC(C)=O)n1 :: false (0)
C[C@]12CCc3sc(-c4cccc(F)c4)nc3C1=CC[C@@H]1[C@@H]2CC[C@]2(C)C(=O)CC[C@@H]12 :: true (1)
CCN(CCO)C(Cc1ccccc1)c1ccccc1 (centres undefined) :: false (0)
CN1CCC(c2c[nH]c3ccccc23)C1 (centres undefined) :: false (0)
CCCCCSC1C2C(=O)C(Br)=CC13CCNc1c(O)c4c5c(c13)=[N+]2CCC=5C=N4 (centres undefined) :: true (1)
O=[N+]([O-])c1cnc[nH]1 :: false (0)
